- experimentalSystem: HLA-A*33:01
- testMethodNotes: IEDB peptide-MHC binding, purified MHC/competitive/radioactivity; filed as Kd, often an IC50 or EC50 that approximates it; bounds were set here for any values at or beyond the usual limits of such assays
- appliedConditions: source organism: Hepatitis B virus adr4
assayMetric: Kd

Ask: Report Kd for GSTHVSWPK please.
Result: 6.74 µM

----------
Kd values for the sequences below.
- experimentalSystem: HLA-A*68:01
- testMethodNotes: IEDB peptide-MHC binding, purified MHC/competitive/radioactivity; filed as Kd, often an IC50 or EC50 that approximates it; bounds were set here for any values at or beyond the usual limits of such assays
- appliedConditions: source organism: HIV-1 M:B_HXB2R
Give just the numeric value; nM need not be written.

See these solved cases before continuing.
MTKILEPFR: 26
YLAWVPAHK: 2

Ask: // fetch HLA-A*68:01 Kd for RAKWNNTLK
Result: 500
